Data provenance: the supplement of paper PMC9170038

system: MS2 coat protein; test: apparent KD of MS2 coat protein; designed switch direction (-1 OFF switch, 1 ON switch): 1; higher = weaker reporter binding; conditions: Eterna round: R95; input ligand: FMN 200 uM
Would you mind telling me the reported apparent KD of MS2 coat protein of each entry?
Express your answer in nM, writing the number without its unit.

Report measured apparent KD of MS2 coat protein; entry is UCUUGGUUUUUGCUCGUUUUUUGUGUUGAACAUGAGGAUCACCCAUGUAUUGUACGGUCCGGUUUAGUGAUGAUCCG [JMF 73] (puzzle: Sensor for hsa-mir-208a) 39.1

Report measured apparent KD of MS2 coat protein; entry is UAGAAACAUGAGGAUCACCCAUGUGGGUUAAACACAGGAUAUCACGCCAAAAGAAAAGCGUGAGAAGGGUGACCGA [Xeusisus] (puzzle: Same State 1) 166

Report measured apparent KD of MS2 coat protein; entry is AAAAGAAGAAUGUAGGAUAUACAAAAGAACACAUGAGGAUCACCCAUGUGAGCCUAAUGUAAGAAGUAGAAGGACAAAGAGAAAA [Default title] (puzzle: Same State 2) 91.3

Report measured apparent KD of MS2 coat protein; entry is GAAUAAGUUUACGAGGAUAUGUUCCGCAUAACAUGAGGAUCACCCAUGUGAACAAGAAAGGCGACGCAGAAGGCGUGAGCAGAAG [Mat - Same State 2 - Mod of UCT - D100] (puzzle: Same State 2) 23

Report measured apparent KD of MS2 coat protein; entry is GUAGAUAUAACGGAGGAUAUUCAAUGAGAGACAUGAGGAUCACCCAUGUAAGAGUGAGAUGAUAGGAAGAAGGCUGAGAGAGAUG [Altered State 2-9 - Jieux - Same State 2] (puzzle: Same State 2) 140

---

test system: K4 kissing-loop RNA reporter; test: apparent KD of K4 kissing-loop reporter; higher = weaker reporter binding; conditions: Eterna round: R107; input ligand: tryptophan 2.4 mM;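 also: bound reporter read as fluorescence of individual clusters on recovered sequencing chips by microscopy, with normalized cluster intensities fitted with a binding model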
Would you mind telling me the reported apparent KD of K4 kissing-loop reporter of each entry?
Express your answer in nM, writing the number without its unit.

Report measured apparent KD of K4 kissing-loop reporter; entry is GAUCUGAACGAAAGUUCGGAUCAGUCCGAUACCAGUAUGGAUUCAUACCCUUGGCAGCGGAAAUCUGCUAUGGAGUGAUGUUCCU [Theophylline A K4 13] 274

Report measured apparent KD of K4 kissing-loop reporter; entry is GUCCCGAGUGAUGUUCGGGUCGUUUGGGAAGGAGCGCCCGGAAGGGCAGGUAGGUCGCCCGGACCGUGCAGGUAACUGUGCGGCC [#2 Same State - Arginine A Attempt #18 (HarryS)] 178

Report measured apparent KD of K4 kissing-loop reporter; entry is AGACUACCACACUGUCAAUAGACAGUGGACUAGGAUAUGCUGAUAAGCAGAAGGAGUGAUGUUCCUUGGUAGUCAAUAAAAUAAU [FmnAX 13 G28+U67] 265

Report measured apparent KD of K4 kissing-loop reporter; entry is CCUUCUCUUGAUAGUGAUGUUGUCGAGGACAAGGAUAUCAUCUCAAUGAGAAGGUGUCCUUGAUAACAUGGAGGUCUGAAACAGA [Omei KL FMN A Exc C v10] 420

Report measured apparent KD of K4 kissing-loop reporter; entry is CGAGUGAUGUUCGAAGAGUUGUUGAGCGAUACCAGCCAGGAAACUGGCCCUUGGCAGCGUAAUAAAUAAAUAAAUAAAUGAUCAC [whbob_Ex_Theo_A_th61] 333

Report measured apparent KD of K4 kissing-loop reporter; entry is GCUAUGGUAGGAAGGAGCGCUUAUUUAUUUUUAAGAGUGAUGUUCGUUAGUAGAUAGUUAAAGCAGGUAGGUCGCCUACUAUAGC [Arginine B K4 15] 100

Report measured apparent KD of K4 kissing-loop reporter; entry is AUUAAUUUCAGAGGAUAUCGUAUUUAUAUUUUAUCUUUCCAUAUUUGCAGUGAUGUUGCAUUAAUUCGAGAAGGCUGAUUUAUAA [JR_ExcFMNB_Sub008] 55.5

Report measured apparent KD of K4 kissing-loop reporter; entry is GUAUGUGGAAACACGUACUUGUAUCCUAAGCAGGAUAUGCGGAAACGCAGAAGGGCUACCAGCGAGUUUAUCCAGUGAUGUUGGA [Ex FMN A 12] 288

Report measured apparent KD of K4 kissing-loop reporter; entry is AAGCAGUCACUCGAAGCCAUCGAAGAUGGCCGAGGACCGGUACGGCCGCCACUCGGAGUGAUGUUCCGAAGACUGCAAAAUAAAA 306

Report measured apparent KD of K4 kissing-loop reporter; entry is AAACGUUGGUCUGAUACCAGCUGAUCGGAAACGAUCUUGCUGGAGUGAUGUUCCAGGAAAAGCCCUUGGCAGCAGACCGACGAAA [MAT - Same State Theophlline B - Mod of Eli - D25] 894

Report measured apparent KD of K4 kissing-loop reporter; entry is GGCGGCUGCGCGCAAGCGCAGCCGGCCGAUACCAGCGCGACGGCGCGCCCUUGGCAGCGGCGCCGAGUGAUGUUCGGCCUGCCGG [#2 Same State - Theophylline A Attempt #19 (HarryS)] 416

Report measured apparent KD of K4 kissing-loop reporter; entry is UUCUACGAGUGAUGUUCGUAGUGUAUUCACUAGGAUAUCGUUUUUUCGAGAAGGAGUGAGGAAGUGAUACGAAAGUAUCGCUUCC [FMN A 15] 378
